ASSAY_SUMMARY: Pharmacokinetic study after i.v. injection in normal and DEN-injured rats
Assay type: in vivo, Sprague Dawley rats
DETAILS: male, Sprague Dawley, rat, plasma, iv, 2.5 mg/kg, DEN-injured rats, i.v. 2.5 mg/kg, two-compartment model
Procedure: Male Sprague Dawley rats (200–220 g), used for pharmacokinetic (PK) studies, were purchased from Beijing Vital River Laboratory Animal Technology Co., Ltd. (Beijing, China). All animals were housed under standardized condition (12 h light/dark schedule), and they were kept 1 week prior to experiments for acclimation. […]
OBSERVABLE: C0 (ng/mL)
// return numeric value only (unit: ng/mL, not printed)

Exam item: Would you kindly share the measured C0 for CC(=O)O[C@H]1[C@H]2O[C@]23[C@@H]2CC[C@]4(O)C[C@@H](O)CC[C@]4(C)[C@H]2CC[C@]3(C)[C@H]1c1ccc(=O)oc1 [Cinobufotalin] ?
Marked response: 1100

###

ASSAY_SUMMARY: Pharmacokinetic study after i.v. injection in normal and DEN-injured rats
Format: in vivo, Sprague Dawley rats
DETAILS: male, Sprague Dawley, rat, plasma, iv, 2.5 mg/kg, normal rats, i.v. 2.5 mg/kg, two-compartment model
OBSERVABLE: AUC (ng·h/mL)
API: value field is a number in ng·h/mL; no unit string.

Exam item: What does the record list as AUC for CC(=O)O[C@H]1[C@H]2O[C@]23[C@@H]2CC[C@]4(O)C[C@@H](O)CC[C@]4(C)[C@H]2CC[C@]3(C)[C@H]1c1ccc(=O)oc1 ?
Marked response: 2600

###

ASSAY_SUMMARY: Pharmacokinetic study after i.v. injection in normal and DEN-injured rats
Assay type: in vivo, Sprague Dawley rats
DETAILS: male, Sprague Dawley, rat, plasma, iv, 2.5 mg/kg, normal rats, i.v. 2.5 mg/kg, two-compartment model; read-out: t1/2β (converted)
OBSERVABLE: half-life
Give the figure together with its unit, number first.

Exam item: Quick check: half-life of CC(=O)O[C@H]1[C@H]2O[C@]23[C@@H]2CC[C@]4(O)C[C@@H](O)CC[C@]4(C)[C@H]2CC[C@]3(C)[C@H]1c1ccc(=O)oc1 [Cinobufotalin] ?
Marked response: 13.2 h

###

ASSAY_SUMMARY: Pharmacokinetic study after i.v. injection in normal and DEN-injured rats
Format: in vivo, Sprague Dawley rats
DETAILS: male, Sprague Dawley, rat, plasma, iv, 2.5 mg/kg, DEN-injured rats, i.v. 2.5 mg/kg, two-compartment model
OBSERVABLE: clearance (mL/min/kg)
# number only, unit mL/min/kg dropped from output

Exam item: Endpoint output: clearance of CC(=O)O[C@H]1[C@H]2O[C@]23[C@@H]2CC[C@]4(O)C[C@@H](O)CC[C@]4(C)[C@H]2CC[C@]3(C)[C@H]1c1ccc(=O)oc1 [Cinobufotalin] . Value?
Marked response: 40

###

TESTED_TARGET: P-glycoprotein (P-gp) (Homo sapiens)
Construct: expressed in transfected cells; host or cells: MDCK II (Madin Darby canine kidney) cells stably transfected with the MDR1 gene
Sequence (P08183 whole entry): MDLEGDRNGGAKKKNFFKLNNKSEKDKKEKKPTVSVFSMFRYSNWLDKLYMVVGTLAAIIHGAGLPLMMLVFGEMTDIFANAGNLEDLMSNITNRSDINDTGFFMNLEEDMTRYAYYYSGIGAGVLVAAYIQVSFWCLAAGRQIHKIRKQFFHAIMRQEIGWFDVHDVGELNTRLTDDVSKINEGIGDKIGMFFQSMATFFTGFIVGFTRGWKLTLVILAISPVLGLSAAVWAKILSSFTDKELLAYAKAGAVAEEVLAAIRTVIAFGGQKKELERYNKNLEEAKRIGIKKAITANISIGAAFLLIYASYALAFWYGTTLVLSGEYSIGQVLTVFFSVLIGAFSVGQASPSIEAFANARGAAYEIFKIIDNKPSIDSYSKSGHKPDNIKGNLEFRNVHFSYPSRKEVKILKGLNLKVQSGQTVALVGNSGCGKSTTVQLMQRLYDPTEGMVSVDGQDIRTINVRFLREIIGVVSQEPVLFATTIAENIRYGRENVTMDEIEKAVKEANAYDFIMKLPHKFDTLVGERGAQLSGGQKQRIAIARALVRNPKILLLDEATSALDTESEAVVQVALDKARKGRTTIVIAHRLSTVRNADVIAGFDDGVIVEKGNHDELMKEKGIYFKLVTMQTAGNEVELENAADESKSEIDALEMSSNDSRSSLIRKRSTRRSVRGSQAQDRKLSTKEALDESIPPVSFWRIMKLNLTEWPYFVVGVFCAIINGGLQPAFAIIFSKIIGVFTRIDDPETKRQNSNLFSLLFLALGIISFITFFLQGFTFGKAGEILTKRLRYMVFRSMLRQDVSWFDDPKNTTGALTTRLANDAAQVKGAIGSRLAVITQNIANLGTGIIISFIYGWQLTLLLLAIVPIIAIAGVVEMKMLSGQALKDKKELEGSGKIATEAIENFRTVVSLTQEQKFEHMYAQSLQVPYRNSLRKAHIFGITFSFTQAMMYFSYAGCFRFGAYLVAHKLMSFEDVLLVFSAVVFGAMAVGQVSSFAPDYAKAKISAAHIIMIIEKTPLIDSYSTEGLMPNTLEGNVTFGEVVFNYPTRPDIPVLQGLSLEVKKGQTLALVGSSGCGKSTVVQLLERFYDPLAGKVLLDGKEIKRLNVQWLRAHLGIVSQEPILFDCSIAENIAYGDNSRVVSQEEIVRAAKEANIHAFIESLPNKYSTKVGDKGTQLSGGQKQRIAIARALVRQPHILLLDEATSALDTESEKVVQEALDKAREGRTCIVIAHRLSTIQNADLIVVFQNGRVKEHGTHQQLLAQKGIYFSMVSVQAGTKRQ
ASSAY_SUMMARY: Bidirectional transport across MDCK-MDR1 cell monolayers
Format: in vitro ADME
DETAILS: dog, pH 7.4; MDCK-MDR1, cinobufotalin 20 μM; read-out: ER
OBSERVABLE: efflux ratio at 120 min, 20 μM
Lab note: record the figure alone, no unit after it.

Exam item: Give its efflux ratio at 120 min, 20 μM value. Item: CC(=O)O[C@H]1[C@H]2O[C@]23[C@@H]2CC[C@]4(O)C[C@@H](O)CC[C@]4(C)[C@H]2CC[C@]3(C)[C@H]1c1ccc(=O)oc1
Marked response: 2.2

Taken from paper PMC6533572.
